This collection of values is drawn from patent US9278068B2.

Consider the following compounds; for each one, report its Inflammation (PCC) 80 nM.
Test system: NF-κB
Assay: NF-κB assay for inflammation (nuclear translocation of NF-κB, immunocytochemistry, PCC)
Conditions: HeLa cells, 80 nM, 2 h; PCC between nuclear and cytoplasmic fraction of NF-κB

Would you please look over these solved cases?
# compound, system.name, readout.type, test.value
data = [
    ("NC(=O)c1cccc(B(O)O)c1", "NF-κB", "Inflammation (PCC) 80 nM", 0.07022),
    ("N#Cc1cc(B(O)O)ccc1F", "NF-κB", "Inflammation (PCC) 80 nM", 0.1014),
    ("Cn1c(B(O)O)cc2ccccc21", "NF-κB", "Inflammation (PCC) 80 nM", 0.00746),
    ("CC(C)(C)OC(=O)n1cccc1B(O)O", "NF-κB", "Inflammation (PCC) 80 nM", 0.05743),
    ("CC(C)(C)Oc1ncc(B(O)O)c(OC(C)(C)C)n1", "NF-κB", "Inflammation (PCC) 80 nM", 0.03106),
]

Go through the items and report each one's Inflammation (PCC) 80 nM.
1. OB(O)c1cccc(O)c1 [3-hydroxyphenylboronic acid]
2. OB(O)c1ccc(-c2ccccc2)s1
3. N#Cc1ccc(B(O)O)cc1
4. OB(O)c1ccc(Br)nc1

Reply:
0.04005
−0.0701
−0.204
0.078

###

Consider the following compounds; for each one, report its MTT (% Cell Survival) 160 nM.
Test system: HeLa cells
Experiment: MTT assay for cytotoxicity
Settings: 160 nM, 2 h
One number for each entry, in %.

# compound, MTT (% Cell Survival) 160 nM / %
measured = [
    ("CC(C)OB(CBr)OC(C)C [diisopropyl(bromomethyl)boronate]", 79.32),
    ("OB(O)c1ccc(O)cc1 [4-hydroxyphenylboronic acid]", 172.8),
    ("OB(O)C1CC1", 80.01),
]

Go through the items and report each one's MTT (% Cell Survival) 160 nM.
1. O=Cc1ccoc1B(O)O
2. CN(C)c1cccc(B(O)O)c1

Reply:
[65.18, 85.91]

###

Tested on: NF-κB
Experiment: NF-κB assay for inflammation (nuclear translocation of NF-κB, immunocytochemistry, PCC)
Conditions: HeLa cells, 160 nM, 2 h; PCC between nuclear and cytoplasmic fraction of NF-κB
Consider the following molecules; for each one, report its Inflammation (PCC) 160 nM.
Numbers only.

Would you please look over these solved cases?
# molecule, readout.type, test.value
records = [
    ("NC(=O)c1ccc(B(O)O)cc1 [4-aminocarbonylphenylboronic acid]", "Inflammation (PCC) 160 nM", 0),
    ("CCCOc1ccccc1B(O)O [2-propoxyphenylboronic acid]", "Inflammation (PCC) 160 nM", "−0.04954"),
    ("OB(O)C1CC1 [cyclopropylboronic acid]", "Inflammation (PCC) 160 nM", 0.1705),
    ("OB(O)c1cccc2cnccc12 [5-isoquinolineboronic acid]", "Inflammation (PCC) 160 nM", 0.2784),
    ("OB(O)c1cccc(OCc2ccccc2)c1 [3-(benzyloxy)phenylboronic acid]", "Inflammation (PCC) 160 nM", 0.3768),
]

Go through the items and report each one's Inflammation (PCC) 160 nM.
1. N#Cc1ccc(B(O)O)s1 [5-cyanothiophene-2-boronic acid]
2. CN(C)c1cccc(B(O)O)c1 [3-(N,N-dimethylamino)phenyl boronic acid]
3. OB(O)c1cscc1Br [3-bromothiophene-4-boronic acid]
4. CC(C)(C)Oc1ncc(B(O)O)c(OC(C)(C)C)n1
5. OB(O)c1cccc2c1oc1ccccc12 [4-dibenzofuranboronic acid]

Reply:
1: 0.2434; 2: 0.1862; 3: 0.1528; 4: 0.1726; 5: −0.128
